# Test system: MDA-MB-435 melanoma
# TEST SUMMARY: NCI-60 one-dose screen, 48 h
# RUN CONDITIONS: 10 µM unless noted
Compounds without any hit were thinned out: in the full panel of roughly 83,000, 20% have a hit. Calls of active or inactive are those of the source. The calls were made as follows: active = growth percent below 10; inactive = the rest.
Your response should consist of one outcome taken from label 1 = active, label 0 = inactive

Recorded results for 6 molecules are shown here.
>  <MOLECULE>
Cc1ccc2c(c1)c(Sc1ccc(C(=O)NO)cc1)c1n2CN(C)CC1

>  <CLASS>
label 0

$$$$
>  <MOLECULE>
Nc1nc2c(s1)CCc1c-2c(Br)n(Cc2ccccc2)c1Br

>  <CLASS>
label 0

$$$$
>  <MOLECULE>
COc1cccc2c(=O)c3c(sc12)c(NCCN(C)C)nc1ccccc13

>  <CLASS>
label 1

$$$$
>  <MOLECULE>
C=CC(=O)N1CC2(CCC(n3nc(-c4ccc(Oc5ccccc5)cc4)c4c(N)ncnc43)CC2)C1

>  <CLASS>
label 1

$$$$
>  <MOLECULE>
CCC12CCC3c4ccc(O)cc4CCC3C1CC(O)C2O (configuration not stated)

>  <CLASS>
label 1

$$$$
>  <MOLECULE>
CCN1CCN(c2nc3ccccc3c3c(=O)c4cc(F)ccc4sc23)CC1

>  <CLASS>
label 0

$$$$

API: the following record is the query input.
Qu. Assay outcome for Brc1ccc(Br)nn1 : what was it?
Ans. label 1

* * *

# Tested on: SR leukemia
# TEST SUMMARY: NCI-60 one-dose screen, 48 h (100 = growth as untreated, 0 = no growth, -100 = all killed)
# RUN CONDITIONS: 10 µM unless noted
# Procedure: Growth inhibition of the SR human tumor cell line is measured as a screen for anti-cancer activity. Cells are grown in 96 well plates and exposed to the test compound for 48 hours. Compounds are tested at a single concentration, which is 10^-5 M for most compounds. The reported endpoint is percent growth (GI% or GIPRCNT), where numbers from 0 - 100% represent growth inhibition, and numbers from -100% - 0 represent cell death. For example, a value of 40 represents 60% growth inhibition. […]
The panel holds about 83,000 compounds, 20% with a hit somewhere; the sample as a whole holds those more often.
MEASUREMENT NAME: growth (%)
The response must be a number in % with no trailing unit.

>  <COMPOUND>
c1ccc(-c2n(Cc3ccc4ccccc4n3)c3ccccc3[n+]2Cc2ccc3ccccc3n2)cc1

>  <growth (%)>
-19.1

$$$$

Qu. Param readout = growth; param system = SR leukemia; param query = Clc1nc(-c2ccccn2)nc2sc3c(c12)CCCCCC3 ; response: value
Ans. 66.3

Qu. // map COC(=O)c1ccc(C(=O)Nc2ccccc2N)cc1 to recorded growth (system: SR leukemia)
Ans. 67.1

Qu. Give the reported growth for COc1cc(/C=C/C(=O)CC(=O)/C=C/c2cc(Br)c(OC)c(OC)c2)cc(Br)c1OC (system: SR leukemia).
Ans. 49.6

Qu. Param readout= growth; system= SR leukemia; entry= CC(C)(C)[Si](C)(C)OC1[C@@H](O[Si](C)(C)C(C)(C)C)[C@@H](CNC(=O)NC(=O)C(F)(F)F)O[C@H]1n1cnc2c(NC(=O)Nc3ccccc3)ncnc21 (some centres undefined) ; returns value.
Ans. -41.9

Qu. API: value(readout= growth, system= SR leukemia, query= Nc1cccc2c(=S)c3ccccc3[nH]c12 )
Ans. 111

Qu. Lab request: please report growth under test system SR leukemia for O=C1CCC(N2C(=O)c3cccc(NCCOCCOCCNC(=O)c4cc5c(o4)C(=O)c4ccccc4C5=O)c3C2=O)C(=O)N1 (centres undefined)
Ans. 9.2

Qu. Form: Entry = COc1ccc(/C=N/NC(=O)c2cnn(CC(O)Cc3ccccc3)c2N)cc1OC1CCCC1 (centres undefined) | System = SR leukemia | growth = ____
Ans. 88.7

* * *

# Tested on: OVCAR-8 ovarian
# TEST SUMMARY: NCI-60 one-dose screen, 48 h (100 = growth as untreated, 0 = no growth, -100 = all killed)
# RUN CONDITIONS: 10 µM unless noted
About 83,000 compounds went through this panel and 20% of them were active in at least one assay; those are over-represented in the sample as a whole.
Lab note - cut at 80% for growth: 1 if strictly below, 0 if not.

>  <COMPOUND>
CCC12CCC3c4ccc(O)cc4CCC3C1CC(O)C2O (stereo not drawn)

>  <CLASS>
0

$$$$
>  <COMPOUND>
COC(=O)c1ccc(C(=O)Nc2ccccc2N)cc1

>  <CLASS>
1

$$$$
>  <COMPOUND>
COc1ccc(-c2nc(Nc3ccc(F)cc3)nc(Nc3ccc4c(c3)nc(C)n4Cc3ccccc3)n2)cc1

>  <CLASS>
1

$$$$
>  <COMPOUND>
COc1nc2c(cc1S(=O)(=O)c1ccccc1)CCc1c-2cnn1-c1ccccc1

>  <CLASS>
1

$$$$
>  <COMPOUND>
Nc1cccc2c(=S)c3ccccc3[nH]c12

>  <CLASS>
0

$$$$

Qu. Please determine if c1ccc2c(c1)oc1cc3c(cc12)nnc1cccn13 is below 80% in terms of growth.
Ans. 0

Qu. Report whether reported growth is lower than 80% (strictly) for CCOC(=O)c1cc2c(n(C)c1=O)-c1cnn(-c3ccc(OC)cc3)c1CC2
Ans. 0

Qu. Is the reported growth for C[C@]1(CO)C[C@@H](O)C[C@]2(C)[C@@H]1CC[C@@]13C[C@@H]4[C@@H](C[C@H]12)[C@]4(C)C3 strictly below 80%?
Ans. 0

* * *

# Test system: CAKI-1 renal
# TEST SUMMARY: NCI-60 one-dose screen, 48 h
# RUN CONDITIONS: 10 µM unless noted
About 83,000 compounds went through this panel and 20% of them were active in at least one assay; those are over-represented in the sample as a whole. The source made the active and inactive calls. How the source made its calls: active means growth percent below 10; inactive means the rest.
Assign a class; possible classes are 1.0 = active, 0.0 = inactive

Solved entries:
>  <MOLECULE>
c1ccc(-c2nc(N3CCOCC3)c3c4c(sc3n2)CCCCCC4)nc1

>  <CLASS>
0.0

$$$$
>  <MOLECULE>
CCOC(=O)C1=C(C)N2C(=NC3=C(CCCC/C3=C\c3cc(OC)c(OC)c(OC)c3)C2c2cc(OC)c(OC)c(OC)c2)S1 (stereo not drawn)

>  <CLASS>
0.0

$$$$
>  <MOLECULE>
CCCN1CCN(c2ccc3nc(-c4ccc5nc(-c6ccc(C(F)(F)F)cc6)[nH]c5c4)[nH]c3c2)CC1

>  <CLASS>
0.0

$$$$
>  <MOLECULE>
CC(C)(C)[Si](C)(C)OC1[C@@H](O[Si](C)(C)C(C)(C)C)[C@@H](CNC(=O)NC(=O)C(F)(F)F)O[C@H]1n1cnc2c(NC(=O)Nc3ccccc3)ncnc21 (stereo partly drawn)

>  <CLASS>
0.0

$$$$
>  <MOLECULE>
O=C1C(Br)=C(c2ccccc2)C(=O)C(Br)=C1c1ccccc1

>  <CLASS>
0.0

$$$$
>  <MOLECULE>
Clc1ccc2c(N3CCN(c4ccnc(NC5CCCCC5)n4)CC3)ccnc2c1

>  <CLASS>
0.0

$$$$

Qu. I would be grateful if you could indicate the recorded call for CC(=O)N(CC(O)CO)c1c(I)c(C(=O)NCCO)c(I)c(C(=O)NCC(O)CO)c1I (stereo not drawn) .
Ans. 0.0

Qu. Outcome? Nc1nc(N)c(C=Nc2ccc(Br)cc2)c(Nc2ccc(Br)cc2)n1
Ans. 0.0

Qu. Could you kindly confirm the outcome this assay logged for Cc1c(C(=O)Nc2nc(-c3ccccc3)cs2)nnn1-c1ccccc1Br ?
Ans. 0.0

Qu. What is the recorded call for this molecule in the test? COc1ccc(/C=C2\CN(Cc3cn(CCCNc4ccnc5cc(Cl)ccc45)nn3)C/C(=C\c3ccc(OC)cc3)C2=O)cc1
Ans. 0.0

Qu. State the result this test recorded for O=C(N/N=C(\CS(=O)(=O)c1ccccc1)c1cc2ccccc2oc1=O)c1ccccc1 .
Ans. 0.0

Qu. For CC(C)(C)[Si](C)(C)OC1[C@@H](COC(=O)NC(=O)CCl)O[C@@H](n2cnc3c(N)ncnc32)[C@H]1O[Si](C)(C)C(C)(C)C (stereo partly drawn) , what call appears in the results of this test?
Ans. 0.0

* * *

# reported growth; entries follow
# Test system: OVCAR-3 ovarian
# TEST SUMMARY: NCI-60 one-dose screen, 48 h (100 = growth as untreated, 0 = no growth, -100 = all killed)
# RUN CONDITIONS: 10 µM unless noted
The panel holds about 83,000 compounds, 20% with a hit somewhere; the sample as a whole holds those more often.
Value expressed in %; do not type the unit.

>  <COMPOUND>
COc1ccc(OC2=CC(=O)c3ccc(C)nc3C2=O)cc1

>  <growth / %>
72.3

$$$$
>  <COMPOUND>
Cc1ccc(S(=O)(=O)N2CCc3ccc(O)c4c3C2CCc2ccccc2-4)cc1 (stereo not drawn)

>  <growth / %>
99.1

$$$$
>  <COMPOUND>
COc1ccc(S(=O)(=O)c2ccc(C(N)=O)cc2)cc1NC(=O)c1[nH]c(C)c2c1CCCCC2=O

>  <growth / %>
48

$$$$

Qu. Field request: growth | item: COc1cc(C2=NN(c3ccc(S(N)(=O)=O)cc3)C(c3ccc(Cl)cc3)C2)cc(OC)c1OC (stereo not drawn)
Ans. 47.1
